Tested on: COL1 protein in NHLF cells
Assay: RapidFire MS/MS quantification of COL1 (IPQA), standard assay
Assay type: cell-based, human
Conditions: Homo sapiens, Col1, 48 h, NHLF, 5 ng/ml TGF–β1, lysed 48 h after TGF–β1, normalized to tubulin; mean ± SD; read-out: MS / MS COL1 IC50
quantity measured: log10 IC50 (log10 of the value in nM)
In our notation, the value equals log10 of IC50 in nM.

Example molecules with recorded log10 IC50:
{"molecule": "CCCCC[C@H](O)/C=C/[C@H]1[C@H](O)CC(=O)[C@@H]1C/C=C\\CCCC(=O)O [PGE2, prostaglandin E2]", "target entity": "COL1 protein in NHLF cells", "quantity measured": "log10 IC50", "recorded number": 0.69}
{"molecule": "CCCCC[C@H](O)/C=C/[C@H]1[C@H](O)CC(=O)[C@@H]1CCCCCCC(=O)O [Alprostadil]", "target entity": "COL1 protein in NHLF cells", "quantity measured": "log10 IC50", "recorded number": 0.70}

Now for the molecule whose log10 IC50 we want.
**Query** Query log10 IC50 on COL1 protein in NHLF cells for O=C1c2ccc(Nc3ccc(F)cc3F)cc2CCc2ccc(OC[C@H](O)CO)cc21 [L–skepinone]
**Result** 3.18

* * *

Test system: TGF–β1–induced NHLF myofibroblasts
Test: HCA, NHLF myofibroblast reversal assay
Assay type: cell-based
Conditions: Homo sapiens; reversal assay: 24 h 5 ng/ml TGF–β1, washed, 72 h compound
Method: Each well of a 384–well clear bottom microtiter plate was coated with 0.1% laminin solution for 60 min at 37°C and rinsed once with PBS. […] Image analysis: The image data acquired with the HCS system were uploaded to ORBIT, an open source image analysis software developed at Idorsia Pharmaceuticals Ltd (http://www.orbit.bio), and analyzed using 288 CPUs in parallel on our computing grid with the ORBIT Cell–Classifier framework using an appropriate CellProfiler pipeline. […]
pIC50: −log10 of the molar value.
Decide by pIC50: equal to or exceeding 6 means T, less means F.

Would you please look over these solved cases?
{"compound": "CCCCC[C@H](O)/C=C/[C@H]1[C@H](O)CC(=O)[C@@H]1CCCCCCC(=O)O [Alprostadil]", "target entity": "TGF–β1–induced NHLF myofibroblasts", "label value": "T"}
{"compound": "O=C(CC1NCCCC1O)Cn1cnc2cc(Br)c(Cl)cc2c1=O (stereo not shown) [Halofuginone]", "target entity": "TGF–β1–induced NHLF myofibroblasts", "label value": "T"}
{"compound": "COC(=O)c1ccc2c(c1)NC(=O)/C2=C(\\Nc1ccc(N(C)C(=O)CN2CCN(C)CC2)cc1)c1ccccc1 [Nintedanib]", "target entity": "TGF–β1–induced NHLF myofibroblasts", "label value": "F"}
{"compound": "C[C@]12CC[C@H](O)C[C@H]1CC[C@@H]1[C@@H]2C[C@@H](O)[C@]2(C)[C@@H](C3=CC(=O)OC3)CC[C@]12O [Digoxigenin]", "target entity": "TGF–β1–induced NHLF myofibroblasts", "label value": "T"}
{"compound": "CC(C)(C)c1ccc(CN(Cc2cccc(OCC(=O)O)c2)S(=O)(=O)c2cccnc2)cc1 [Evatanepag]", "target entity": "TGF–β1–induced NHLF myofibroblasts", "label value": "F"}

**Query** Please check the record Cc1cccc(-c2[nH]c(CNc3ccccc3F)nc2-c2ccc3ncnn3c2)n1 [EW–7197] and state if its pIC50 is at or above 6.
**Result** F

**Query** And the next one, CCCCC[C@H](O)/C=C/[C@H]1[C@H](O)CC(=O)[C@@H]1C/C=C\CCCC(=O)O [PGE2, prostaglandin E2] ?
**Result** T

* * *

System: NHLF cells
Experiment: RealTime–Glo MT viability assay
Settings: human, 10 µM
Structures can show the parent of a compound that is named as a salt.
quantity measured: Effect on viability at 10 µM [% reduction] (% reduction)
Dear colleague, please return just the value in % reduction, with no unit written.

Example compounds with recorded Effect on viability at 10 µM [% reduction]:
{"compound": "Cc1cc(N)c2ccccc2[n+]1CCCCCCCCCC[n+]1c(C)cc(N)c2ccccc21 [Dequalinium dichloride]", "recorded number": 39}
{"compound": "C[C@H]1O[C@@H](O[C@H]2[C@@H](O)C[C@H](O[C@H]3[C@@H](O)C[C@H](O[C@H]4CC[C@@]5(C)[C@H](CC[C@@H]6[C@@H]5C[C@@H](O)[C@]5(C)[C@@H](C7=CC(=O)OC7)CC[C@]65O)C4)O[C@@H]3C)O[C@@H]2C)C[C@H](O)[C@@H]1O", "recorded number": 19}
{"compound": "CCCCC(=O)O[C@H]1CC[C@H]2[C@@H]3CCc4cc(O)ccc4[C@H]3CC[C@]12C [Estradiol Valerate]", "recorded number": 65}

Now for the compound whose Effect on viability at 10 µM [% reduction] we want.
**Query** Query Effect on viability at 10 µM [% reduction] on NHLF cells for COc1cccc2c1C(=O)c1c(O)c3c(c(O)c1C2=O)C[C@@](O)(C(=O)CO)C[C@@H]3O[C@H]1C[C@H](N)[C@@H](O)[C@H](C)O1 [Epirubicin hydrochloride]
**Result** 28

* * *

Tested on: COL1 protein in NHLF cells
Experiment: RapidFire MS/MS quantification of COL1 (IPQA), standard assay
Format: cell-based, human
Conditions: NHLF, 5 ng/ml TGF–β1, lysed 48 h after TGF–β1, normalized to tubulin; mean ± SD; read-out: MS / MS COL1 IC50
quantity measured: IC50 (µM)
Dear colleague, please return just the value in µM, with no unit written.

{"compound": "O=C(Nc1cccc(Nc2ncc(Br)c(NCCc3cnc[nH]3)n2)c1)N1CCCC1 [BX–912]", "unit abbreviation": "µM", "recorded number": 8.7}
{"compound": "Cc1ccccc1-n1c(Cn2cnc3c(N)ncnc32)nc2cccc(C)c2c1=O [IC–87114]", "unit abbreviation": "µM", "recorded number": 4.9}
{"compound": "CN(C)Cc1cccc(N/C(=C2\\C(=O)Nc3cc(C(=O)N(C)C)ccc32)c2ccccc2)c1 [BIX 02189]", "unit abbreviation": "µM", "recorded number": 6.5}

Now for the compound whose IC50 we want.
**Query** Give the measured IC50 of CCOc1cc(N2CCC(O)CC2)ccc1Nc1ncc2c(n1)N(C)c1ccccc1C(=O)N2C [XMD 8–92] .
**Result** 5.4

* * *

Consider the following compounds and their measured IC50 readings.
Tested on: normal human lung fibroblasts (NHLF)
Assay: Phenotypic high-content assay (HCA) of TGF–β1–induced fibroblast–to–myofibroblast differentiation
Format: cell-based
Details: Homo sapiens, Fibroblast, 48 h, NHLF, 5 ng/ml TGF–β1 for 48 h, compound added with TGF–β1; mean ± SD; read-out: HCA IC50
Method: The plate was washed 3 times with starvation medium, e.g. fibroblast basal medium (FBM, Lonza) supplemented with 0.1% faf BSA, 100 units / ml of penicillin and 100 μg / ml of streptomycin and 250 ng / ml amphotericin B, and then starved for 24 h in 30 μl volume. NHLF were differentiated into myofibroblasts by incubation with 5 ng / ml TGF–β1 (from a stock of 20 μg / ml in 4 mM HCl, 1 mg / ml BSA) for 48 h. […]
Counter-ions that a name gives are not always drawn.
Dear colleague, please return just the value in µM, with no unit written.

{"compound": "O=C1c2ccc(Nc3ccc(F)cc3F)cc2CCc2ccc(OC[C@H](O)CO)cc21 [L–skepinone]", "IC50, µM": 23}

**Query** Give the measured IC50 of O=C1c2c(O)ccc(O)c2C(=O)c2c(NCCNCCO)ccc(NCCNCCO)c21 [Mitoxantrone dihydrochloride] .
**Result** 0.62

**Query** And the next one, CCCCC(=O)O[C@H]1CC[C@H]2[C@@H]3CCc4cc(O)ccc4[C@H]3CC[C@]12C [Estradiol Valerate] ?
**Result** 9.7

**Query** And the next one, Nc1c2ccccc2nc2ccccc12 ?
**Result** 6

**Query** And the next one, COC(=O)Nc1nc2ccc(Sc3ccccc3)cc2[nH]1 ?
**Result** 6.7

* * *

Test system: normal human lung fibroblasts (NHLF)
Assay: Phenotypic high-content assay (HCA) of TGF–β1–induced fibroblast–to–myofibroblast differentiation
Assay type: cell-based
Details: Homo sapiens, Fibroblast, 48 h, NHLF, 5 ng/ml TGF–β1 for 48 h, compound added with TGF–β1; mean ± SD; read-out: HCA IC50
Consider the following compounds and their measured IC50 readings.
Dear colleague, please return just the value in µM, with no unit written.

{"compound": "COCCOC(=O)C1=C(C)NC(C)=C(C(=O)OC/C=C/c2ccccc2)C1c1cccc([N+](=O)[O-])c1 (stereo not drawn)", "unit abbreviation": "µM", "recorded number": 8.04}

Now for the compound whose IC50 we want.
**Query** Give the measured IC50 of O=c1cc(N2CCOCC2)oc2c(-c3ccccc3)cccc12 .
**Result** 2.4

Attribution: paper PMC6261607
